Target: BACE1 (Homo sapiens (Human), UniProt P56817)
Sequence (P56817 46-501, species assumed): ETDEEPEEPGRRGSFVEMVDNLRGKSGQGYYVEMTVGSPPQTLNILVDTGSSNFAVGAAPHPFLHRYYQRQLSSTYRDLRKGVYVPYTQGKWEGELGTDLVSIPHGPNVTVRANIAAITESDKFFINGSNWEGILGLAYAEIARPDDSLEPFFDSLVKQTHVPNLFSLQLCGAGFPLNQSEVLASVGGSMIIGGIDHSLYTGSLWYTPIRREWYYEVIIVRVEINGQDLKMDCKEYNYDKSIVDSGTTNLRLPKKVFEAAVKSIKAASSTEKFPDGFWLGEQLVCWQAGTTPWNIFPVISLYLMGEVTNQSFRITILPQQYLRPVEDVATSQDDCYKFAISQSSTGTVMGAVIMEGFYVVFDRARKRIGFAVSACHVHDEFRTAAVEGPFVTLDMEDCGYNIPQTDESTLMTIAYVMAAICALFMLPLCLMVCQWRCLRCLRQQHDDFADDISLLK
Assay: In vitro BACE1 cell-based assay (Aβ40 in conditioned medium of cells stably expressing APP, HTRF)
Conditions: Aβ40 in conditioned media after 24 h incubation
pIC50: −log10 of the molar value.
Record TRUE whenever pIC50 is at 7 or higher; record FALSE when lower.

In plain terms: is recorded pIC50 at least 7 for C[C@]1(c2cc(/C=C(/F)C3CCCO3)ccc2F)N=C(N)[C@@]2(CF)CC[C@@H]1S2(=O)=O (stereo partly shown) [Example 278] ?
FALSE

In plain terms: is recorded pIC50 at least 7 for CC1(C)C(N)=N[C@@]2(c3ccc(/C=C(\F)c4ccc(C#N)cn4)cc3F)COC[C@H]2S1(=O)=O [Example 261] ?
TRUE

In plain terms: is recorded pIC50 at least 7 for CN1C(N)=N[C@](C)(c2cc(/C=C(\F)c3cnc(C#N)cn3)ccc2F)C2(CC2)S1(=O)=O [Example 147] ?
TRUE

In plain terms: is recorded pIC50 at least 7 for C[C@]1(c2cc(/C=C(\F)c3cnc(OCC4CC4)cn3)ccc2F)N=C(N)[C@@]2(CF)CC[C@@H]1S2(=O)=O [Example 118] ?
FALSE

In plain terms: is recorded pIC50 at least 7 for CC1(C)C(N)=N[C@](C)(c2cc(/C=C(\F)c3cnc(Cl)cn3)cc(F)c2F)CS1(=O)=O [Example 193] ?
FALSE

In plain terms: is recorded pIC50 at least 7 for CN1C(N)=N[C@](C)(c2cc(/C=C(\F)c3ncc(C#N)cc3Cl)cc(F)c2F)CS1(=O)=O [Example 276] ?
TRUE

In plain terms: is recorded pIC50 at least 7 for CC1(C)C(N)=N[C@](C)(c2cc(/C=C(\F)c3cc4c(cn3)OCCO4)ccc2F)CS1(=O)=O [Example 184] ?
FALSE

In plain terms: is recorded pIC50 at least 7 for CC1(C)C(N)=N[C@](C)(c2cc(/C=C(\F)c3cnc(Oc4ccccc4)cn3)ccc2F)CS1(=O)=O [Example 211] ?
FALSE

In plain terms: is recorded pIC50 at least 7 for CN1C(N)=N[C@](C)(c2cc(/C=C(\F)c3ncc(C#N)cc3Cl)ccc2F)CS1(=O)=O [Example 269] ?
TRUE

In plain terms: is recorded pIC50 at least 7 for CC1(C)C(N)=N[C@](C)(c2cc(/C=C(\F)c3cnc(OCCn4cc(Br)cn4)cn3)ccc2F)CS1(=O)=O [Example 156] ?
FALSE

In plain terms: is recorded pIC50 at least 7 for CC#C[C@H](C)Oc1cnc(/C(F)=C/c2ccc(F)c([C@]3(C)CS(=O)(=O)C(C)(C)C(N)=N3)c2)cn1 (single isomer, unassigned) [Example 208] ?
TRUE

In plain terms: is recorded pIC50 at least 7 for CCC#C[C@H](C)Oc1cnc(/C(F)=C/c2ccc(F)c([C@]3(C)CS(=O)(=O)C(C)(C)C(N)=N3)c2)cn1 (single isomer, unassigned) [Example 217] ?
FALSE

In plain terms: is recorded pIC50 at least 7 for CN1C(N)=N[C@](C)(c2cc(/C=C(\F)c3cnc(C#CC4CC4)cn3)ccc2F)CS1(=O)=O [Example 248] ?
TRUE

In plain terms: is recorded pIC50 at least 7 for C#C[C@H](C)Oc1cnc(/C(F)=C/c2ccc(F)c([C@]3(C)CS(=O)(=O)N(C)C(N)=N3)c2)cn1 [Example 171] ?
TRUE

In plain terms: is recorded pIC50 at least 7 for CC1(C)C(N)=N[C@](C)(c2cc(/C=C(\F)c3cnc(OCCn4cccn4)cn3)ccc2F)CS1(=O)=O [Example 157] ?
FALSE

In plain terms: is recorded pIC50 at least 7 for C[C@]1(c2cc(/C=C(\F)c3cnc(OCC4CCC4)cn3)ccc2F)N=C(N)[C@@]2(CF)CC[C@@H]1S2(=O)=O [Example 132] ?
FALSE

In plain terms: is recorded pIC50 at least 7 for CC(C)(C#N)COc1cnc(/C(F)=C/c2ccc(F)c([C@]3(C)CS(=O)(=O)C(C)(C)C(N)=N3)c2)cn1 [Example 153] ?
FALSE

In plain terms: is recorded pIC50 at least 7 for CN1C(N)=N[C@](C)(c2cc(/C=C(\F)C3CCOCC3)cc(F)c2F)CS1(=O)=O [Example 110] ?
FALSE

In plain terms: is recorded pIC50 at least 7 for CC#CCOc1cnc(/C(F)=C/c2ccc(F)c([C@]3(C)CS(=O)(=O)C(C)(C)C(N)=N3)c2)cn1 [Example 154] ?
TRUE

In plain terms: is recorded pIC50 at least 7 for CC1(C)C(N)=N[C@](C)(c2cc(/C=C(\F)c3cc4c(cn3)OCCO4)ccc2F)[C@H](F)S1(=O)=O (single isomer, unassigned) [Example 214] ?
FALSE

In plain terms: is recorded pIC50 at least 7 for CN1C(N)=N[C@](C)(c2cc(/C=C(\F)c3cnc(C4CC4)cn3)ccc2F)CS1(=O)=O [Example 266] ?
FALSE

In plain terms: is recorded pIC50 at least 7 for Cc1cc(C#N)cnc1/C(F)=C/c1cc(F)c(F)c([C@]2(C)CS(=O)(=O)N(C)C(N)=N2)c1 [Example 275] ?
TRUE

In plain terms: is recorded pIC50 at least 7 for CN1C(N)=N[C@](C)(c2cc(/C=C(\F)c3cnc(OCC#CCO)cn3)ccc2F)CS1(=O)=O [Example 252] ?
TRUE

In plain terms: is recorded pIC50 at least 7 for Cc1nnc(COc2cnc(/C(F)=C/c3ccc(F)c([C@@]4(C)N=C(N)[C@@]5(CF)CC[C@@H]4S5(=O)=O)c3)cn2)o1 [Example 119] ?
TRUE

In plain terms: is recorded pIC50 at least 7 for CC1(C)C(N)=N[C@](CF)(c2cc(/C=C(\F)c3cnc(Cl)cn3)ccc2F)CS1(=O)=O [Example 189] ?
FALSE

In plain terms: is recorded pIC50 at least 7 for Cc1cc(C#N)cnc1/C(F)=C/c1ccc(F)c([C@]2(C)CS(=O)(=O)N(C)C(N)=N2)c1 [Example 245] ?
TRUE

* * *

Target: β-secretase (Rattus norvegicus (Rat), UniProt P56819)
Assay: In vivo inhibition of β-secretase: Aβ reduction in rat CSF and brain
Settings: brain
Would you mind telling me the reported % Aβ reduction in rat brain at 10 mpk of each entry?
The reply should be a number in %, with the unit left off.

Please look at this molecule and report its % Aβ reduction in rat brain at 10 mpk: C#C[C@H](C)Oc1cnc(/C(F)=C/c2ccc(F)c([C@]3(C)CS(=O)(=O)C(C)(C)C(N)=N3)c2)cn1
34

Please look at this molecule and report its % Aβ reduction in rat brain at 10 mpk: CC#C[C@H](CC)Oc1cnc(/C(F)=C/c2ccc(F)c([C@]3(C)CS(=O)(=O)C(C)(C)C(N)=N3)c2)cn1
58

Please look at this molecule and report its % Aβ reduction in rat brain at 10 mpk: C#CCOc1cnc(/C(F)=C/c2cc(F)c(F)c([C@]3(C)CS(=O)(=O)C(C)(C)C(N)=N3)c2)cn1
61

Please look at this molecule and report its % Aβ reduction in rat brain at 10 mpk: C#CCOc1cnc(/C(F)=C/c2cnc(F)c([C@]3(C)CS(=O)(=O)C(C)(C)C(N)=N3)c2)cn1
65

* * *

Target: human recombinant BACE2 (Homo sapiens (Human), UniProt Q9Y5Z0)
Sequence (Q9Y5Z0 63-518): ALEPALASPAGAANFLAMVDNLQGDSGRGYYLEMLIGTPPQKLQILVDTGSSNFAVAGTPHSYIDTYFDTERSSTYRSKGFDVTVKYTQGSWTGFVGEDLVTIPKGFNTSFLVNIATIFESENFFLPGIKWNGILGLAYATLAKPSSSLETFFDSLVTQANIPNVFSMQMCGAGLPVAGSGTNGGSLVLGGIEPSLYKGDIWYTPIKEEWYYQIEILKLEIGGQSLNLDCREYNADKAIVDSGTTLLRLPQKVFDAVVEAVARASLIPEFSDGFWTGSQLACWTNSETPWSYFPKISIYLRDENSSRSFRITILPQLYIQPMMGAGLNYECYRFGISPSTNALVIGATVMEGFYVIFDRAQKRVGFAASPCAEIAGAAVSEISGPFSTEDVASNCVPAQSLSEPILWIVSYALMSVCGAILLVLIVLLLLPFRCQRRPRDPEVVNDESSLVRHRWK
Test: In vitro enzymatic BACE2 FRET assay
Details: read-out: BACE2 Enzyme IC50
measure: log10(IC50) (log10 of the value in nM)
Please note: log10 values; quantity IC50; unit nM.

Please look at this molecule and report its log10(IC50): COc1cc(/C(F)=C/c2ccc(F)c([C@]3(C)CS(=O)(=O)N(C)C(N)=N3)c2)ncc1Cl [Example 230]
1.38

Please look at this molecule and report its log10(IC50): CN1C(N)=N[C@](C)(c2cc(/C=C(\F)c3cnc(OCc4ncccn4)cn3)cc(F)c2F)CS1(=O)=O [Example 228]
2.42

Please look at this molecule and report its log10(IC50): C#C[C@H](C)Oc1cnc(/C(F)=C/c2ccc(F)c([C@@]3(C)N=C(N)N(C)S(=O)(=O)C3(C)C)c2)cn1 [Example 186]
2.65

Please look at this molecule and report its log10(IC50): CN1C(N)=N[C@](C)(c2cc(/C=C(\F)c3ncc(C(F)(F)F)cc3Cl)ccc2F)CS1(=O)=O [Example 242]
1.00

Please look at this molecule and report its log10(IC50): CN1C(N)=N[C@](C)(c2cc(/C=C(\F)c3cc(F)c(Cl)cn3)ccc2F)CS1(=O)=O [Example 232]
0.30

Please look at this molecule and report its log10(IC50): Cc1nnc(COc2cnc(/C(F)=C/c3cc(F)c(F)c([C@]4(C)CS(=O)(=O)N(C)C(N)=N4)c3)cn2)o1 [Example 233]
2.79

Please look at this molecule and report its log10(IC50): CC1(C)C(N)=N[C@](C)(c2cc(/C=C(\F)c3cnc(OCCn4cc(Br)cn4)cn3)ccc2F)CS1(=O)=O [Example 156]
2.83

Please look at this molecule and report its log10(IC50): C#CCOc1cnc(/C(F)=C/c2ccc(F)c([C@@]3(C)N=C(N)C(C)(C)S(=O)(=O)C3(F)F)c2)cn1 [Example 202]
2.94

Please look at this molecule and report its log10(IC50): C#CCOc1cnc(/C(F)=C/c2ccc(F)c([C@]3(C)CS(=O)(=O)C4(CCC4)C(N)=N3)c2)cn1 [Example 149]
1.71

Please look at this molecule and report its log10(IC50): CN1C(N)=N[C@](C)(c2cc(/C=C(\F)c3cc4cc(Cl)ccc4cn3)ccc2F)CS1(=O)=O [Example 260]
2.05

Please look at this molecule and report its log10(IC50): CC1(C)C(N)=N[C@](C)(c2cc(/C=C/c3ccc(Cl)cc3)ccc2F)CS1(=O)=O [Example 279]
1.75

Please look at this molecule and report its log10(IC50): Cc1nnc(COc2cnc(/C(F)=C/c3ccc(F)c([C@]4(C)CS(=O)(=O)N(C)C(N)=N4)c3)cn2)o1 [Example 173]
2.01

Please look at this molecule and report its log10(IC50): CC#C[C@H](CC)Oc1cnc(/C(F)=C/c2ccc(F)c([C@]3(C)CS(=O)(=O)C(C)(C)C(N)=N3)c2)cn1 (single isomer, unassigned) [Example 199]
2.01

Please look at this molecule and report its log10(IC50): Cc1csc(COc2cnc(/C(F)=C/c3cc(F)c(F)c([C@]4(C)CS(=O)(=O)N(C)C(N)=N4)c3)cn2)n1 [Example 237]
2.01
